Assign pEC50 to each entry below.
Molecular target: ABCA4 P1380L (Homo sapiens, UniProt P78363, P1380L)
Construct: expressed in transfected cells
Sequence (P78363 whole entry P1380L): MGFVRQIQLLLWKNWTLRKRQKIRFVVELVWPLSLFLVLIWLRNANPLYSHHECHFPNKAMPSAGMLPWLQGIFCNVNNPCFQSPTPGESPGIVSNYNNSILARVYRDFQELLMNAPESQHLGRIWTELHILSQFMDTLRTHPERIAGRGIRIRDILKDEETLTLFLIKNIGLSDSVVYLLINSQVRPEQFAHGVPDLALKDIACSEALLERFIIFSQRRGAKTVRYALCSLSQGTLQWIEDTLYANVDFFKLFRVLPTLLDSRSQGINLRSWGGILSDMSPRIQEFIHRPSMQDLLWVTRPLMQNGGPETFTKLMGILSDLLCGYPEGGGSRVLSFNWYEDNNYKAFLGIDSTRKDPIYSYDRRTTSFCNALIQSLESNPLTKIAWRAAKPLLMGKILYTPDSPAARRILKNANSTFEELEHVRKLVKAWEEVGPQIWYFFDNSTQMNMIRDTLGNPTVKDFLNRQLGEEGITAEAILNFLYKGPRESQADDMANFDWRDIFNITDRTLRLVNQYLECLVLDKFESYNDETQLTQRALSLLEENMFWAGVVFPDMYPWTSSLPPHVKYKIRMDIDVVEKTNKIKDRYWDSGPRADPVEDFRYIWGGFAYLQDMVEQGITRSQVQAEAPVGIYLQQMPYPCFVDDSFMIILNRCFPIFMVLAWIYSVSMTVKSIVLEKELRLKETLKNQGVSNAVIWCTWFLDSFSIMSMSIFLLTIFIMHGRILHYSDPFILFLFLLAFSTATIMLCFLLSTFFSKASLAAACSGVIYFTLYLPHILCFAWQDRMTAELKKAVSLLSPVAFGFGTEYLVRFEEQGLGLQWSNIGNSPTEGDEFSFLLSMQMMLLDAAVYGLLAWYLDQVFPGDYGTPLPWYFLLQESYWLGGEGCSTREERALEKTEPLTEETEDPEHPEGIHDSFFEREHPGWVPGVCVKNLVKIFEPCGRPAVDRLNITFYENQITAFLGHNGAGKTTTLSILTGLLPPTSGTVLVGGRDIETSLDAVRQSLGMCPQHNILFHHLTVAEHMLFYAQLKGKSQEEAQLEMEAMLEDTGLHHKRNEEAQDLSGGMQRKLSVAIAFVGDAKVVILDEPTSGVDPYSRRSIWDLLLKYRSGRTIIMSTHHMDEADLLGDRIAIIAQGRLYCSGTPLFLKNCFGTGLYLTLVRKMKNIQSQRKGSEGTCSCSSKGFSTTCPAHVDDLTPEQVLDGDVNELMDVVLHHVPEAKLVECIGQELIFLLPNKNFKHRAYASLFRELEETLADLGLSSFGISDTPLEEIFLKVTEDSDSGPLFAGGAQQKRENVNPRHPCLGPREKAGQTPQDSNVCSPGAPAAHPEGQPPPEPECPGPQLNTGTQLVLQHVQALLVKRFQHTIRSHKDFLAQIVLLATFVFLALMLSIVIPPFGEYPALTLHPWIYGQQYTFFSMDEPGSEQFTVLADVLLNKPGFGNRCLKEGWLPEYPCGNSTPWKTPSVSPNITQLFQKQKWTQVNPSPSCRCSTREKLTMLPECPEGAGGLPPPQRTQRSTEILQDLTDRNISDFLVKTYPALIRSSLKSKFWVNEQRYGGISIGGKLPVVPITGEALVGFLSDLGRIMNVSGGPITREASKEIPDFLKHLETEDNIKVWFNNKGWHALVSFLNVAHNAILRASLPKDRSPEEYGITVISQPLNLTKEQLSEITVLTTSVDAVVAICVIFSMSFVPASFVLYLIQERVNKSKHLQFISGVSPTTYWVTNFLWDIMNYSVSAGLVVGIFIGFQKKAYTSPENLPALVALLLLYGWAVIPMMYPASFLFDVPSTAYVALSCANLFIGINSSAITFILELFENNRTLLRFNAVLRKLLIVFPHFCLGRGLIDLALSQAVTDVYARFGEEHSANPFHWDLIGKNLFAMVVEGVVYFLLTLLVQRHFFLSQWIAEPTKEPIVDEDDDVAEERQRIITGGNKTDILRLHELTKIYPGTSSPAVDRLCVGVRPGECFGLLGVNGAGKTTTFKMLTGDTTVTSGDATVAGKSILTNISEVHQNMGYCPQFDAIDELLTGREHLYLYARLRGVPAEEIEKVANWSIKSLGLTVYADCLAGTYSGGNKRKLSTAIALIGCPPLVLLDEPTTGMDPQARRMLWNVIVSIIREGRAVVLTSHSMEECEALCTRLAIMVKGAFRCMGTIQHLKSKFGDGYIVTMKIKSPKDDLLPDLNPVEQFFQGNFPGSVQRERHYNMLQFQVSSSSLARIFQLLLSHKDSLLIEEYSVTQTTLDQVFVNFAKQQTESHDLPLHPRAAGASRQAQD
Assay: A4 correction dose-response assay: ABCA4 P1380L HiBit protein expression
Assay type: cell-based
Conditions: HEK-293 cells stably expressing HiBit-tagged ABCA4 P1380L; 24 h treatment; top concentration 30 μM; read-out: ABCA4 P1380L EC50, Emax
pEC50: −log10 of the molar value.

Q. Reported pEC50, compound Cc1cc(C2CC2)nc(C)c1Oc1nc(-c2cncc(C#N)c2)ccc1S(C)(=N)=O (stereo not shown) : ____
A. < 4.60

Q. Reported pEC50, compound "Cc1cc(C)c(Oc2nc(-c3ccn(C)c(=O)c3)ccc2NS(C)(=O)=O)c(C)n1" : ____
A. < 4.60

Q. Reported pEC50, compound "Cc1cc(C)c(Oc2nc(-c3cncc(C#N)c3)ccc2NS(=O)(=O)C2CCC2)c(C)n1" : ____
A. > 6.00

Q. Reported pEC50, compound "CNS(=O)(=O)c1ccc(-c2cncc(Cl)c2)nc1Oc1c(C)cc(C)cc1C" : ____
A. > 6.00

Q. Reported pEC50, compound "Cc1cc(C(F)F)nc(C2CC2)c1Oc1nc(-c2cncc(C#N)c2)ccc1S(=O)(=O)NC1CC1" : ____
A. 5.00 to 6.00

Q. Reported pEC50, compound "Cc1cc(C)c(Oc2nc(-c3cncc(Cl)c3)ccc2S(=O)(=O)N[C@H](c2ccccc2)C(F)(F)F)c(C)c1" : ____
A. 5.00 to 6.00

Q. Reported pEC50, compound "Cc1nc(C(F)(F)F)nc(C)c1Oc1nc(-c2cncc(Cl)c2)ccc1NS(C)(=O)=O" : ____
A. > 6.00

* * *

Target: ABCA4 P1380L (Homo sapiens, UniProt P78363, P1380L)
Construct: expressed in transfected cells
Test: A4 correction dose-response assay: ABCA4 P1380L HiBit protein expression
Type: cell-based
Conditions: HEK-293 cells stably expressing HiBit-tagged ABCA4 P1380L; 24 h treatment; top concentration 30 μM; read-out: ABCA4 P1380L EC50, Emax
pEC50: −log10 of the molar value.
endpointLabel: pEC50

Q. Reported pEC50, molecule Cc1cc(C)c(Oc2nc(N3CCN(C(=O)C4(C)CC4)CC3)ccc2NS(C)(=O)=O)c(C)c1 [Compound I-15] : ____
A. 5.00 to 6.00

Q. Reported pEC50, molecule Cc1cc(C)c(Oc2nc(-c3cncc(Cl)c3)ccc2NS(=O)(=O)C2CC2)c(C)c1 [Compound I-49] : ____
A. < 4.60

Q. Reported pEC50, molecule Cc1cc(C(F)(F)F)nc(C)c1Oc1nc(-c2cncc(C#N)c2)ccc1NS(C)(=O)=O [Compound I-240] : ____
A. > 4.60

Q. Reported pEC50, molecule Cc1cc(C)c(Oc2nc(-c3cncc(Cl)c3)ccc2NS(=O)(=O)c2cnn(C)c2)c(C)c1 [Compound I-72] : ____
A. < 4.60

* * *

Target: ABCC6 WT (Homo sapiens)
Sequence (O95255 whole entry): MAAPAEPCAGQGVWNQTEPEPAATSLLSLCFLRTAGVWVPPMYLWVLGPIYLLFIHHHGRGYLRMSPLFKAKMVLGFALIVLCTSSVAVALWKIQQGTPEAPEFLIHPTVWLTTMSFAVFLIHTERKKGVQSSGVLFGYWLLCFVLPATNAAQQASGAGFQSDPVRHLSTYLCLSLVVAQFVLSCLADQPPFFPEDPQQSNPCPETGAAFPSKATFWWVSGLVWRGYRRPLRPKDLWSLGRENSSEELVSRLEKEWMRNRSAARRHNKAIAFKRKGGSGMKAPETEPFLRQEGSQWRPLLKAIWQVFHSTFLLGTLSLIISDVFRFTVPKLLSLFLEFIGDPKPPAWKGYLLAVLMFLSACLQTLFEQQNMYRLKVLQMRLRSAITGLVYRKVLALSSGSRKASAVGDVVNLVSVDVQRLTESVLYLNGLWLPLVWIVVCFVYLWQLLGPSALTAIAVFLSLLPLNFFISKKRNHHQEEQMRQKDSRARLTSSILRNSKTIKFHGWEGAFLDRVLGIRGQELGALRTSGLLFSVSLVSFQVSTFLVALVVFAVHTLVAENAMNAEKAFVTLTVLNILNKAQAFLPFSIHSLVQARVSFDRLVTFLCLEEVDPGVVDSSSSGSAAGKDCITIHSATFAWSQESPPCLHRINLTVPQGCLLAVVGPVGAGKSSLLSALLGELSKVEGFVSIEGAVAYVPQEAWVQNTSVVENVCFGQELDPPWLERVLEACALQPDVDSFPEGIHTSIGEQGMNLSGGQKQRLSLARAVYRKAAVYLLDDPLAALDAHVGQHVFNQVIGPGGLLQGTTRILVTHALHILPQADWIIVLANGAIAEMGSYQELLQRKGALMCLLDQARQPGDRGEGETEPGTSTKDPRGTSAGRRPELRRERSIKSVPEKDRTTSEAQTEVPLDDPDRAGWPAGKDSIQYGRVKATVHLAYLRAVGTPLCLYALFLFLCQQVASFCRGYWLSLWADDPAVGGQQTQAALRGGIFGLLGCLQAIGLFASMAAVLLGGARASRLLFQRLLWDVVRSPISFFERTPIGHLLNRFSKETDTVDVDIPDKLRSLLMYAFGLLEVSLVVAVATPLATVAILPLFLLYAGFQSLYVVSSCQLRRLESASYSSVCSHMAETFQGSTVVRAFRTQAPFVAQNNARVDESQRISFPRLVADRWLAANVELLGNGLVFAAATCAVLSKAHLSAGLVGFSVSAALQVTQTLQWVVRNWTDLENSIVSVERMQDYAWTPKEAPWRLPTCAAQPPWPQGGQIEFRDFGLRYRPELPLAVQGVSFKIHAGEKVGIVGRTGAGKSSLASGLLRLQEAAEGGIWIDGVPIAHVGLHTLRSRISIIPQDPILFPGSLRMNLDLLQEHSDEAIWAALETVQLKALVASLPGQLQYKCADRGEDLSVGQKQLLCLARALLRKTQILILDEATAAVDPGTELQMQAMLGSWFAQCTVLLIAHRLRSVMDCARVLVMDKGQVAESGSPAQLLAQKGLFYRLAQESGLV
Experiment: ABCC6 WT assay: HiBit protein expression
Settings: HEK-293 cells transiently expressing HiBit-tagged ABCC6 WT; 24 h treatment; top concentration 20 μM; read-out: ABCC6 WT EC50, Emax
pEC50: −log10 of the molar value.
Assign pEC50 to each entry below.

Q. Reported pEC50, compound "Cc1cc(C(F)(F)F)nc(C2CC2)c1Oc1nc(-c2cncc(C#N)c2)ccc1NS(=O)(=O)C1CC1" : ____
A. > 6.00

Q. Reported pEC50, compound "Cc1cc(C)c(Oc2nc(-c3cncc(C#N)c3)ccc2NS(=O)(=O)C2(C)CC2)c(C)n1" : ____
A. 5.00 to 6.00

Q. Reported pEC50, compound "Cc1cc(C)c(Oc2nc(-n3ccc(C#N)n3)ccc2NS(C)(=O)=O)c(C)c1" : ____
A. 5.00 to 6.00

Q. Reported pEC50, compound "Cc1cc(C)c(Oc2nc(-c3cncc(Cl)c3)cnc2NS(C)(=O)=O)c(C)n1" : ____
A. 5.00 to 6.00

Q. Reported pEC50, compound "Cc1nc(C(F)(F)F)nc(C2CC2)c1Oc1nc(-c2cncc(Cl)c2)ccc1NS(C)(=O)=O" : ____
A. > 6.00

Q. Reported pEC50, compound "Cc1cc(C)c(Oc2nc(-c3cncc(C#N)c3)cnc2NS(C)(=O)=O)c(C)c1" : ____
A. > 6.00

Q. Reported pEC50, compound Cc1cc(C)c(Oc2nc(N3CC4CC3CN4C(=O)C3CC3)ccc2NS(C)(=O)=O)c(C)c1 (single isomer, unassigned) [Compound I-19] : ____
A. ≤ 4.60
